These entries and their values trace back to patent US20150313801A1.

test system: carious dentin tissue in infected teeth; experiment: Staining of caries-infected tooth slices, retention after NaCl and NaOH incubation (Example 2); settings: conclusion of Example 2
observedProperty: mode of binding to carious tissue in infected teeth (conclusion)

chemSmiles	result
NNC(=O)CSCC(=O)Nc1ccc(-c2c3ccc(=O)cc-3oc3cc(O)ccc23)c(C(=O)O)c1	bind irreversibly
Cc1c(CC(=O)NN)c(=O)oc2cc(N)c(S(=O)(=O)O)cc12	bind irreversibly
NNC(=O)NN1C(=O)c2cc(S(=O)(=O)O)cc3c(N)c(S(=O)(=O)O)cc(c23)C1=O	bind irreversibly
